tested on: Canis familiaris; experiment: Antiarrhythmic activity in iv dosed dog assessed as dose required for reversal of ouabain-induced cardiac arrhythmia; format: functional, Canis lupus familiaris, Heart
METRIC_NAME: Activity (mg/kg)
Give bare numbers, in mg/kg.

CCCCCC(=O)Nc1ccc(OCC(O)CNC(C)C)c(C(C)=O)c1 (centres undefined); 3.2
CCCC(=O)Nc1ccc(OCC(O)CNC(C)C)c(C(C)=O)c1 (centres undefined); 8.1
CCC(=O)Nc1ccc(OCC(O)CNC(C)C)c(C(C)=O)c1 (racemic); 22.5

Give Activity for CCCCCCC(=O)Nc1ccc(OCC(O)CNC(C)C)c(C(C)=O)c1 (centres undefined)
2.7

---

Would you mind telling me the reported Activity of each entry?
tested on: Felis catus; test: In vivo beta-1 adrenergic receptor blocking activity in iv dosed cat assessed as half dose required for desensitizing isoproterenol-induced tachycardia after 3.5 mins; format: functional
I'd appreciate it if you included the unit after the number.

Some entries whose results are on file:
CCC(=O)Nc1ccc(OCC(O)CNC(C)C)c(C(=O)CC)c1 (stereo not drawn); 0.026 mg/kg
CC(=O)c1cc(NC(=O)c2ccccc2)ccc1OCC(O)CNC(C)C (stereo not drawn); 0.54 mg/kg

From here, focus on the item given below.
Give Activity for CCCC(=O)Nc1ccc(OCC(O)CNC(C)C)c(C(=O)CCC)c1 (stereo not drawn)
0.23 mg/kg
